Listing: pIC50 of selected molecules
system: HEK-293T; test: Antiproliferative activity in human HEK293T cells incubated for 72 hrs by MTT assay; format: cell-based
pIC50: −log10 of the molar value.
Endpoint Label: pIC50

INSERT INTO assay_data (molecule, experimental_system, comparison_operator, recorded_result) VALUES
  ('O=C1Nc2ccc(Br)cc2C12N(c1cccc(Cl)c1)N=C(c1cccc(Cl)c1)N2c1cccc(Cl)c1 (stereo unspecified)', 'HEK-293T', '=', 5.05),
  ('O=C1Nc2ccccc2C12N(c1ccccc1)N=C(c1ccccc1)N2c1ccc(Cl)cc1 (stereo unspecified)', 'HEK-293T', '<', 4.00),
  ('O=C1Nc2ccc(Br)cc2C12N(c1ccccc1)N=C(c1ccc(Cl)cc1)N2c1cccc(Cl)c1 (stereo unspecified)', 'HEK-293T', '=', 4.69),
  ('O=C1Nc2ccc(Br)cc2C12N(c1ccccc1)N=C(c1ccccc1)N2c1ccc(Cl)cc1 (stereo unspecified)', 'HEK-293T', '=', 4.67),
  ('O=C1Nc2ccc(Br)cc2C12N(c1ccc(Cl)cc1)N=C(c1ccccc1)N2c1cccc(Cl)c1 (stereo unspecified)', 'HEK-293T', '=', 4.79),
  ('O=C1Nc2ccccc2C12N(c1ccccc1)N=C(c1ccc(Cl)cc1)N2c1ccc(Cl)cc1 (stereo unspecified)', 'HEK-293T', '=', 4.64);

---

assay: Selectivity index, ratio of IC50 for antiproliferative activity in HEK293T cells to IC50 for antiproliferative activity in human MDA-MB-231 cells; assay type: toxicity, cell-based; details: HEK293T cells versus MDA-MB-231 cells, read-out: Ratio IC50
Endpoint Label: selectivity ratio

INSERT INTO assay_data (compound, recorded_result) VALUES
  ('O=C1Nc2ccc(Br)cc2C12N(c1ccccc1)N=C(c1ccccc1)N2c1ccc(Cl)cc1 (centres undefined)', '≥ 2.4'),
  ('O=C1Nc2ccc(Br)cc2C12N(c1ccccc1)N=C(c1ccccc1)N2c1cccc(Cl)c1 (centres undefined)', '≥ 2.4'),
  ('O=C1Nc2ccc(Br)cc2C12N(c1ccccc1)N=C(c1ccccc1)N2c1ccc(F)c(Cl)c1 (centres undefined)', '≥ 2.4'),
  ('O=C1Nc2ccc(Br)cc2C12N(c1ccccc1)N=C(c1ccccc1)N2c1ccccc1 (centres undefined)', '≥ 2.4');

---

test system: HEK-293T; test: Antiproliferative activity in human HEK293T cells incubated for 72 hrs by MTT assay; format: cell-based
Listing: IC50 of selected molecules
Endpoint Label: IC50 (µM)

INSERT INTO measurements (molecule, endpoint_label, recorded_result) VALUES
  ('O=C1Nc2ccccc2C12N(c1ccccc1Cl)N=C(c1cccc(Cl)c1)N2c1ccc(Cl)cc1 (centres undefined)', 'IC50', 35),
  ('O=C1Nc2ccc(Br)cc2C12N(c1ccccc1)N=C(c1ccccc1)N2c1ccc(F)c(Cl)c1 (centres undefined)', 'IC50', 16.6),
  ('O=C1Nc2ccc(Br)cc2C12N(c1ccccc1Cl)N=C(c1cccc(Cl)c1)N2c1cccc(Cl)c1 (centres undefined)', 'IC50', 21.4),
  ('O=C1Nc2ccc(Br)cc2C12N(c1ccccc1)N=C(c1cccc(Cl)c1)N2c1cccc(Cl)c1 (centres undefined)', 'IC50', 12.5),
  ('COc1ccc(C2=NN(c3ccccc3)C3(C(=O)Nc4ccc(Br)cc43)N2c2cccc(Cl)c2)cc1 (centres undefined)', 'IC50', 25.9),
  ('O=C1Nc2ccc(Br)cc2C12N(c1ccccc1Cl)N=C(c1ccccc1)N2c1cccc(Cl)c1 (centres undefined)', 'IC50', 20.9),
  ('O=C1Nc2ccc(Cl)cc2C12N(c1ccccc1)N=C(c1ccccc1)N2c1ccccc1 (centres undefined)', 'IC50', 32.6),
  ('O=C1Nc2ccccc2C12N(c1ccc(Cl)cc1)N=C(c1ccccc1)N2c1ccc(Cl)cc1 (centres undefined)', 'IC50', 15.8),
  ('O=C1Nc2ccccc2C12N(c1ccccc1)N=C(c1cccc(Cl)c1)N2c1ccc(Cl)cc1 (centres undefined)', 'IC50', 20.5);

---

Listing: selectivity ratio of selected compounds
assay: Selectivity index, ratio of IC50 for antiproliferative activity in HEK293T cells to IC50 for antiproliferative activity in human MCF7 cells; assay type: toxicity, cell-based; conditions: HEK293T cells versus MCF7 cells, read-out: Ratio IC50
Endpoint Label: selectivity ratio

INSERT INTO measurements (compound, recorded_result) VALUES
  ('O=C1Nc2ccc(Cl)cc2C12N(c1ccccc1)N=C(c1ccccc1)N2c1ccccc1 (stereo not drawn)', '< 2'),
  ('O=C1Nc2ccccc2C12N(c1ccccc1)N=C(c1ccc(Cl)cc1)N2c1ccc(Cl)cc1 (stereo not drawn)', 2.1),
  ('O=C1Nc2ccc(Cl)cc2C12N(c1ccccc1)N=C(c1ccccc1)N2c1cccc(Cl)c1 (stereo not drawn)', '2.5 to 10.2'),
  ('O=C1Nc2ccc(Br)cc2C12N(c1ccccc1Cl)N=C(c1cccc(Cl)c1)N2c1cccc(Cl)c1 (stereo not drawn)', 2.3),
  ('O=C1Nc2ccc(Br)cc2C12N(c1ccccc1)N=C(c1ccc(Cl)cc1)N2c1cccc(Cl)c1 (stereo not drawn)', '< 2'),
  ('O=C1Nc2c(Cl)cccc2[C@]12[C@@H](c1ccccc1)C(c1ccccc1)=NN2c1ccccc1', '> 4.5'),
  ('O=C1Nc2ccc(Br)cc2C12N(c1ccccc1)N=C(c1cccc(Cl)c1)N2c1cccc(Cl)c1 (stereo not drawn)', '< 2'),
  ('O=C1Nc2ccccc2C12N(c1ccccc1Cl)N=C(c1cccc(Cl)c1)N2c1ccc(Cl)cc1 (stereo not drawn)', 2.7);

---

Listing: IC50 of selected compounds
tested on: HCT-116; assay: Antiproliferative activity in p53 (+/+) human HCT116 cells incubated for 72 hrs by MTS assay; assay type: functional, cell-based; details: HCT-116, 72 h
Endpoint Label: IC50 (µM)

INSERT INTO results (compound, recorded_result) VALUES
  ('O=C1Nc2ccccc2C12N(c1ccccc1)N=C(c1ccccc1)N2c1cccc(Cl)c1 (centres undefined)', 19.9),
  ('O=C1Nc2ccc(Br)cc2C12N(c1ccccc1)N=C(c1cccc(Cl)c1)N2c1cccc(Cl)c1 (centres undefined)', 12.6),
  ('O=C1Nc2ccc(Br)cc2C12N(c1ccccc1)N=C(c1ccccc1)N2c1cccc(Cl)c1 (centres undefined)', 15.7),
  ('O=C1Nc2ccccc2C12N(c1ccccc1Cl)N=C(c1cccc(Cl)c1)N2c1ccc(Cl)cc1 (centres undefined)', 25.3);

---

assay: Selectivity index, ratio of IC50 for antiproliferative activity in HEK293T cells to IC50 for antiproliferative activity in human p53 (-/-) human HCT116 cells; format: toxicity, cell-based; conditions: HEK293T cells versus p53 (-/-) HCT116 cells, read-out: Ratio IC50
Endpoint Label: selectivity ratio

INSERT INTO results (compound, endpoint_label, recorded_result) VALUES
  ('O=C1Nc2ccc(Cl)cc2C12N(c1ccccc1)N=C(c1ccccc1)N2c1ccccc1 (stereo not drawn)', 'selectivity ratio', '< 2'),
  ('O=C1Nc2ccccc2C12N(c1ccccc1)N=C(c1cccc(Cl)c1)N2c1ccc(Cl)cc1 (stereo not drawn)', 'selectivity ratio', '< 2'),
  ('O=C1Nc2ccc(Br)cc2C12N(c1ccccc1)N=C(c1ccccc1)N2c1cccc(Cl)c1 (stereo not drawn)', 'selectivity ratio', '< 2'),
  ('O=C1Nc2ccc(Br)cc2C12N(c1ccccc1)N=C(c1ccccc1)N2c1ccccc1 (stereo not drawn)', 'selectivity ratio', 2.5),
  ('O=C1Nc2ccccc2C12N(c1ccc(Cl)cc1)N=C(c1ccccc1)N2c1ccc(Cl)cc1 (stereo not drawn)', 'selectivity ratio', '< 2'),
  ('O=C1Nc2ccccc2C12N(c1ccccc1Cl)N=C(c1cccc(Cl)c1)N2c1ccc(Cl)cc1 (stereo not drawn)', 'selectivity ratio', '< 2'),
  ('O=C1Nc2ccc(Br)cc2C12N(c1ccccc1)N=C(c1cccc(Cl)c1)N2c1cccc(Cl)c1 (stereo not drawn)', 'selectivity ratio', '< 2'),
  ('O=C1Nc2c(Cl)cccc2C12N(c1ccccc1)N=C(c1ccccc1)N2c1ccccc1 (stereo not drawn)', 'selectivity ratio', '2.5 to 4.2'),
  ('O=C1Nc2ccc(Br)cc2C12N(c1cccc(Cl)c1)N=C(c1cccc(Cl)c1)N2c1cccc(Cl)c1 (stereo not drawn)', 'selectivity ratio', '< 2'),
  ('O=C1Nc2ccc(Br)cc2C12N(c1ccccc1Cl)N=C(c1ccccc1)N2c1cccc(Cl)c1 (stereo not drawn)', 'selectivity ratio', '< 2'),
  ('O=C1Nc2ccc(Br)cc2C12N(c1ccccc1Cl)N=C(c1cccc(Cl)c1)N2c1cccc(Cl)c1 (stereo not drawn)', 'selectivity ratio', '< 2'),
  ('O=C1Nc2ccc(Br)cc2C12N(c1ccccc1)N=C(c1ccc(Cl)cc1)N2c1cccc(Cl)c1 (stereo not drawn)', 'selectivity ratio', '< 2'),
  ('COc1ccc(C2=NN(c3ccccc3)C3(C(=O)Nc4ccc(Br)cc43)N2c2cccc(Cl)c2)cc1 (stereo not drawn)', 'selectivity ratio', '< 2'),
  ('O=C1Nc2ccc(Br)cc2C12N(c1ccc(Cl)cc1)N=C(c1ccccc1)N2c1cccc(Cl)c1 (stereo not drawn)', 'selectivity ratio', '< 2'),
  ('O=C1Nc2ccc(Br)cc2C12N(c1ccccc1)N=C(c1ccccc1)N2c1ccc(F)c(Cl)c1 (stereo not drawn)', 'selectivity ratio', '< 2'),
  ('O=C1Nc2ccc(Br)cc2C12N(c1ccccc1)N=C(c1ccccc1)N2c1ccc(Cl)cc1 (stereo not drawn)', 'selectivity ratio', '< 2'),
  ('O=C1Nc2ccccc2C12N(c1cccc(Cl)c1)N=C(c1ccccc1)N2c1ccc(Cl)cc1 (stereo not drawn)', 'selectivity ratio', '< 2'),
  ('O=C1Nc2ccccc2C12N(c1ccccc1)N=C(c1ccccc1)N2c1ccc(Cl)cc1 (stereo not drawn)', 'selectivity ratio', '2.5 to 4.1');
